Test system: Rattus norvegicus
Test protocol: Cardiotoxicity in Sprague-Dawley rat electrophysiology model assessed as QRS complex abnormalities at 10 mg/kg, iv by ECG analysis
Assay type: toxicity, organism-based
Set-up: dose 10 mg/kg, route intravenous
Condition details: in vivo
Outcome measure: Activity

Chemical structure | Activity
CC[C@H](C[C@H](O)[C@@H](N)CN1CC(=O)N(c2ccccc2Cl)CC1(C)C)C(=O)NCC1(CO)CCCCC1.O=C(O)/C=C/C(=O)O | Toxic
CC(C)[C@H](C[C@H](O)[C@@H](N)CN1CC(=O)N(c2ccccc2Cl)CC1(C)C)C(=O)N[C@H]1CC[C@H](O)CC1.O=C(O)/C=C/C(=O)O | Non-toxic
CC(C)[C@H](C[C@H](O)[C@@H](N)CN1CC(=O)N(c2ccccc2Cl)CC1(C)C)C(=O)NCC(C)(C)O.O=C(O)/C=C/C(=O)O | Non-toxic
CC(C)NC(=O)[C@@H](C[C@H](O)[C@@H](N)CN1CC(=O)N(c2ccccc2Cl)CC1(C)C)C(C)C.O=C(O)/C=C/C(=O)O | Toxic

Continue with the compound presented below.
[in] Consider the compound shown here: `CC(C)[C@H](C[C@H](O)[C@@H](N)CN1CC(=O)N(c2ccccc2Cl)CC1(C)C)C(=O)NC1CCOCC1.O=C(O)/C=C/C(=O)O` What is its recorded Activity?
[out] Toxic

---

Tested system: Renin (Macaca fascicularis) (UniProt Q6DLS0)
Test protocol: Ratio of compound IC50 to aliskiren IC50 for renin in cynomolgus monkey plasma
Outcome measure: Ratio IC50
One number for each entry.

Chemical structure | Ratio IC50
CC[C@H](C[C@H](O)[C@@H](N)CN1CC(=O)N(c2ccccc2Cl)CC1(C)C)C(=O)NCC(C)(C)CO.O=C(O)/C=C/C(=O)O | 0.8
CC(C)[C@H](C[C@H](O)[C@@H](N)CN1CC(=O)N(c2ccccc2Cl)CC1(C)C)C(=O)N[C@H]1CC[C@H](O)CC1.O=C(O)/C=C/C(=O)O | 0.8
CC(C)[C@H](C[C@H](O)[C@@H](N)CN1CC(=O)N(c2ccccc2Cl)CC1(C)C)C(=O)NCC(C)(C)CO.O=C(O)/C=C/C(=O)O | 0.8
CCCCNC(=O)[C@@H](C[C@H](O)[C@@H](N)CN1CC(=O)N(c2ccccc2Cl)CC1(C)C)C(C)C.O=C(O)/C=C/C(=O)O | 0.8

Dear reader, for each entry below, please note its Ratio IC50.
1. CC(C)[C@H](C[C@H](O)[C@@H](N)CN1CC(=O)N(c2ccccc2Cl)CC1(C)C)C(=O)Nc1ccncc1.O=C(O)/C=C/C(=O)O
2. CC(C)[C@H](C[C@H](O)[C@@H](N)CN1CC(=O)N(c2ccccc2Cl)CC1(C)C)C(=O)Nc1ccccc1.O=C(O)/C=C/C(=O)O

[out]
1. 1.5
2. 1.3

---

Would you mind telling me the reported Ratio IC50 of each entry?
Tested system: Renin (Macaca fascicularis) (UniProt Q6DLS0)
Test protocol: Ratio of compound IC50 to aliskiren IC50 for renin in cynomolgus monkey plasma
Answers are plain numbers.

Dear reader, for each entry below, please note its Ratio IC50.
1. CC(C)[C@H](C[C@H](O)[C@@H](N)CN1CC(=O)N(c2cc(F)ccc2Cl)CC1(C)C)C(=O)N[C@H]1C2CC3CC1C[C@](O)(C3)C2.O=C(O)/C=C/C(=O)O
2. CCCCNC(=O)[C@@H](C[C@H](O)[C@@H](N)CN1CC(=O)N(c2cc(F)ccc2Cl)CC1(C)C)C(C)C
3. CC[C@H](C[C@H](O)[C@@H](N)CN1CC(=O)N(c2ccccc2Cl)CC1(C)C)C(=O)Nc1ccc(OC)cc1.O=C(O)/C=C/C(=O)O

[out]
0.7
1.2
2.1

---

Would you mind telling me the reported Ratio IC50 of each entry?
Tested system: Renin (Macaca fascicularis) (UniProt Q6DLS0)
Sequence (whole entry): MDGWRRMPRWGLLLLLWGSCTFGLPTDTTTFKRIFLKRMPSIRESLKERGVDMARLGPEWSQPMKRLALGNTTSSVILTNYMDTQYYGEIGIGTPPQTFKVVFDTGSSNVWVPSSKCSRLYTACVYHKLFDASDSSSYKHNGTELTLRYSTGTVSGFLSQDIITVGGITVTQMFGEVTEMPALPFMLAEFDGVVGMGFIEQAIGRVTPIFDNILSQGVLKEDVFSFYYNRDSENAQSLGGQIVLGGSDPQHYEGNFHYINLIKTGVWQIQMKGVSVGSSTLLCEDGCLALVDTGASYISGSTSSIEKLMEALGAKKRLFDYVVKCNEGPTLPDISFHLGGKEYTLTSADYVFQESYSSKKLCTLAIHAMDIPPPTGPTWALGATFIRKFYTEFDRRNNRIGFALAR
Test protocol: Ratio of compound IC50 to aliskiren IC50 for renin in cynomolgus monkey plasma

Chemical structure | Ratio IC50
CC(C)[C@H](C[C@H](O)[C@@H](N)CN1CC(=O)N(c2ccccc2Cl)CC1(C)C)C(=O)NC1CCOCC1.O=C(O)/C=C/C(=O)O | 1.4
CC(C)[C@H](C[C@H](O)[C@@H](N)CN1CC(=O)N(c2ccccc2Cl)CC1(C)C)C(=O)Nc1ccc(F)cn1.O=C(O)/C=C/C(=O)O | 0.5

Dear reader, for each entry below, please note its Ratio IC50.
1. CC(C)[C@H](C[C@H](O)[C@@H](N)CN1CC(=O)N(c2ccccc2Cl)CC1(C)C)C(=O)NCC(C)(C)C.O=C(O)/C=C/C(=O)O
2. CC[C@H](C[C@H](O)[C@@H](N)CN1CC(=O)N(c2cc(F)ccc2C)CC1(C)C)C(=O)N[C@H]1C2CC3CC1C[C@](O)(C3)C2.O=C(O)/C=C/C(=O)O
3. CC(C)[C@H](C[C@H](O)[C@@H](N)CN1CC(=O)N(c2ccccc2Cl)CC1(C)C)C(=O)NC12CC3CC(CC(O)(C3)C1)C2.O=C(O)/C=C/C(=O)O

[out]
[0.5, 0.9, 0.7]
